targetUnderTest: Cyclin-dependent kinase 1/cyclin B (Homo sapiens)
methodSummary: Inhibitory concentration against human Cyclin B-cyclin-dependent kinase 1 was observed
readoutKind: IC50 (nM)
Please give a number only; it is taken to be in nM.

Req: Using the record for `CN(C)S(=O)(=O)c1ccc(Nc2cn3cc(C(=O)c4c(Cl)cccc4Cl)ccc3n2)cc1` , report its IC50.
Resp: 970

Req: Reported IC50 for `CS(=O)(=O)c1cccc(Nc2cn3cc(C(=O)c4c(Cl)cccc4Cl)ccc3n2)c1` : what is it?
Resp: 1700

Req: Given the entry `N=C(N)NS(=O)(=O)c1ccc(Nc2cn3cc(C(=O)c4c(Cl)cccc4Cl)ccc3n2)cc1` , report its measured IC50.
Resp: 160

Req: What does the record list as IC50 for `CS(=O)(=O)c1ccc(Nc2cn3cc(C(=O)c4c(Cl)cccc4Cl)ccc3n2)cc1` ?
Resp: 520

Req: Given the entry `NC(=O)c1ccc(Nc2cn3cc(C(=O)c4c(Cl)cccc4Cl)ccc3n2)cc1` , report its measured IC50.
Resp: 580

Req: Consider the compound `CN(C)S(=O)(=O)c1cccc(Nc2cn3cc(C(=O)c4c(Cl)cccc4Cl)ccc3n2)c1` and give its measured IC50.
Resp: 9260

Req: // returns reported IC50 for input `NS(=O)(=O)c1ccc(Nc2cn3cc(C(=O)c4c(Cl)cccc4Cl)ccc3n2)cc1`
Resp: 390

Req: Which IC50 is reported for this compound? `CSc1cccc(Nc2cn3cc(C(=O)c4c(Cl)cccc4Cl)ccc3n2)c1`
Resp: 4800

Req: // lookup IC50 for `O=C(NS(=O)(=O)c1ccc(Nc2cn3cc(C(=O)c4c(Cl)cccc4Cl)ccc3n2)cc1)c1ccccc1`
Resp: 250

Req: Given `O=C(O)c1ccc(Nc2cn3cc(C(=O)c4c(Cl)cccc4Cl)ccc3n2)cc1` , state its recorded IC50.
Resp: 450

Req: State the recorded IC50 for this entry: `CSc1ccc(Nc2cn3cc(C(=O)c4c(Cl)cccc4Cl)ccc3n2)cc1`
Resp: 3040

Req: // returns reported IC50 for input `NC(=O)c1cccc(Nc2cn3cc(C(=O)c4c(Cl)cccc4Cl)ccc3n2)c1`
Resp: 1920

====

targetUnderTest: Cyclin-dependent kinase 4/cyclin D1 (Homo sapiens)
methodSummary: Inhibitory concentration against human Cyclin D1-cyclin-dependent kinase 4 was observed
List of pIC50 values.
Formally, pIC50 is defined as -log10 of the concentration c, with c in mol/L.

Req: # pIC50 lookup, item `NC(=O)c1ccc(Nc2cn3cc(C(=O)c4c(Cl)cccc4Cl)ccc3n2)cc1`
Resp: 5.79

Req: So what's the measured pIC50 for this one? `CN(C)S(=O)(=O)c1ccc(Nc2cn3cc(C(=O)c4c(Cl)cccc4Cl)ccc3n2)cc1`
Resp: 5.67

Req: I'd like to know its pIC50. The compound in question is `O=C(NS(=O)(=O)c1ccc(Nc2cn3cc(C(=O)c4c(Cl)cccc4Cl)ccc3n2)cc1)c1ccccc1`
Resp: 5.42

Req: So what's the measured pIC50 for this one? `CSc1cccc(Nc2cn3cc(C(=O)c4c(Cl)cccc4Cl)ccc3n2)c1`
Resp: 4.92

Req: So what does the record say about pIC50 for `CS(=O)(=O)c1cccc(Nc2cn3cc(C(=O)c4c(Cl)cccc4Cl)ccc3n2)c1` ?
Resp: 5.50

More entries:
Req: Data request, read-out pIC50, for `CSc1ccc(Nc2cn3cc(C(=O)c4c(Cl)cccc4Cl)ccc3n2)cc1`
Resp: 5.13

Req: Data request, read-out pIC50, for `N=C(N)NS(=O)(=O)c1ccc(Nc2cn3cc(C(=O)c4c(Cl)cccc4Cl)ccc3n2)cc1`
Resp: 5.89

Req: For `NS(=O)(=O)c1ccc(Nc2cn3cc(C(=O)c4c(Cl)cccc4Cl)ccc3n2)cc1` , what is its reported pIC50?
Resp: 5.87

Req: What value of measured pIC50 is listed for `O=C(O)c1ccc(Nc2cn3cc(C(=O)c4c(Cl)cccc4Cl)ccc3n2)cc1` ?
Resp: 5.30

Req: Form field: reported pIC50 of `NC(=O)c1cccc(Nc2cn3cc(C(=O)c4c(Cl)cccc4Cl)ccc3n2)c1`
Resp: 5.40

Req: Requested read-out: pIC50. Entry: `CS(=O)(=O)c1ccc(Nc2cn3cc(C(=O)c4c(Cl)cccc4Cl)ccc3n2)cc1`
Resp: 5.91

====

targetUnderTest: Cyclin-dependent kinase 4/cyclin D1 (Homo sapiens, UniProt P11802)
Sequence (P11802 whole entry): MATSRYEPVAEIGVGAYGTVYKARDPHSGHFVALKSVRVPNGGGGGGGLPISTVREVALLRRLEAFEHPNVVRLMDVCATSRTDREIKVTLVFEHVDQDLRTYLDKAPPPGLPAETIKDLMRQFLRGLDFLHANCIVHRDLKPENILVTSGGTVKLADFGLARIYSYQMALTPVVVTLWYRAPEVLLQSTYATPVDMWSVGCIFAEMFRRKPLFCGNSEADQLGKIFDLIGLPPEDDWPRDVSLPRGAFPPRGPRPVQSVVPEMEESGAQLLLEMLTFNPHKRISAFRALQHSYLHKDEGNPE
Sequence (P24385 whole entry, further chain): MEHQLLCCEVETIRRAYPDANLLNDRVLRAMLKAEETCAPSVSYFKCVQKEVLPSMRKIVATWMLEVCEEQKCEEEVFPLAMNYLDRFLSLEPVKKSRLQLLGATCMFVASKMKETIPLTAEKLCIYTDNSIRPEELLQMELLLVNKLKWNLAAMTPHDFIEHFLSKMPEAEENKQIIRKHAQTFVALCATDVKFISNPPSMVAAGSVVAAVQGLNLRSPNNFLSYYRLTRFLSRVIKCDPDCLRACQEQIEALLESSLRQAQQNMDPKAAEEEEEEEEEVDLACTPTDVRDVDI
methodSummary: Inhibitory concentration against human Cyclin D1-cyclin-dependent kinase 4 was observed
readoutKind: IC50

Req: Data request, read-out IC50, for `O=C(c1ccc2nc(Nc3ccc(Oc4ccccc4)cc3)cn2c1)c1c(Cl)cccc1Cl`
Resp: > 20 µM

Req: Look up IC50: `CN(C)S(=O)(=O)c1cccc(Nc2cn3cc(C(=O)c4c(Cl)cccc4Cl)ccc3n2)c1`
Resp: > 20 µM

More entries:
Req: What value of IC50 has been recorded for this entry: `O=C(c1ccc2nc(Nc3ccncc3)cn2c1)c1c(Cl)cccc1Cl`
Resp: > 20 µM

Provenance of the data: ChEMBL document CHEMBL1143514
